subjectOfTest: human F508del-CFTR (Homo sapiens, UniProt P13569, DEL508-508)
Sequence (P13569 with tags, fused parts or gaps DEL508-508): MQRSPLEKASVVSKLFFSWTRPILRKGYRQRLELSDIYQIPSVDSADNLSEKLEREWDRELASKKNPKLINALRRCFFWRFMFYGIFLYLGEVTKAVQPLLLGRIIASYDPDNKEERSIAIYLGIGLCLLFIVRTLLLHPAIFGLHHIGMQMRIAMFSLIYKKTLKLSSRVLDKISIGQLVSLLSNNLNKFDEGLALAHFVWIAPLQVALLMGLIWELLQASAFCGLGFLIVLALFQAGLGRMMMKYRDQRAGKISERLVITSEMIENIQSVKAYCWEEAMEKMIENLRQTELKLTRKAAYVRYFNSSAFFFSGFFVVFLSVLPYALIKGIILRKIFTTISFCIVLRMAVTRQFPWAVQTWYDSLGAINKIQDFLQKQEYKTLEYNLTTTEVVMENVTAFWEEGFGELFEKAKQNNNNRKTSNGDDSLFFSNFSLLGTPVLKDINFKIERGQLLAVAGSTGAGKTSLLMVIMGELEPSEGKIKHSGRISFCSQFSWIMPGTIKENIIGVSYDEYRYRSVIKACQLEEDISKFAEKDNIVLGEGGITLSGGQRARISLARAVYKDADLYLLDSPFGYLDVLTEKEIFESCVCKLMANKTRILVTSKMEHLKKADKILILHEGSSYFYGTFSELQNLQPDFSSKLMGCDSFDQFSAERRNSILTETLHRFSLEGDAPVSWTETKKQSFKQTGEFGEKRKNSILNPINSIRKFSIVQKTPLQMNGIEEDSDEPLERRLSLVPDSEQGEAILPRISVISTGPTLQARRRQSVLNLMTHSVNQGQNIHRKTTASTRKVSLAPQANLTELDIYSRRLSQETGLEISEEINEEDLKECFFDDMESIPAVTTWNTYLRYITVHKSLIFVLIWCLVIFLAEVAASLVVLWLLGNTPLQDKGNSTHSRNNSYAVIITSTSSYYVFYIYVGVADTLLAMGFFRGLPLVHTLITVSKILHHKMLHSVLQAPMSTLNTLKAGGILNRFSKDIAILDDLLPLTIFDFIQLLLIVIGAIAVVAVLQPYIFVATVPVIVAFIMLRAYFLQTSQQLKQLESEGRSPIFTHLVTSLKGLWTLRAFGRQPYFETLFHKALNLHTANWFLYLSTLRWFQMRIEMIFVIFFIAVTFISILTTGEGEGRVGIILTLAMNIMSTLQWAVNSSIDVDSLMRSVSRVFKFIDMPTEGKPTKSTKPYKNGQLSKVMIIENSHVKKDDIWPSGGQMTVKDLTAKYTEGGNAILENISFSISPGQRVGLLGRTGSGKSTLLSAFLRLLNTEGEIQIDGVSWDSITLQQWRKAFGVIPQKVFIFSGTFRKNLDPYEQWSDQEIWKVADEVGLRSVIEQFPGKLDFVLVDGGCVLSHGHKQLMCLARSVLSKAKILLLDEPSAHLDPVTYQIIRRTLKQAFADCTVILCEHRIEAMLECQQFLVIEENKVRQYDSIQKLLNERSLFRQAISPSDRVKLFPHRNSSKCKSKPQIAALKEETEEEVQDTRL
protocolDescription: F508del-CFTR cell surface expression (corrector activity), DiscoveRx ß-galactosidase complementation chemiluminescence assay in recombinant U2OS cell line;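 further: U2OS cells co-expressing ProLink-tagged F508del-CFTR and a membrane-anchored enzyme acceptor, where more surface CFTR restores β-galactosidase activity measured by chemiluminescence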
conditionContext: EC50, F508del-CFTR cell surface expression, U2OS cells, 16h compound incubation; geomean values
// classify: if (EC50 < 300 nM) 1 else -1

compound	assignedLabel
CC(C)C[C@H]1C(=O)N(C)CC(=O)N[C@H](Cc2ccccc2)COc2nc3ccccn3c2C(=O)N[C@H](C(=O)NCCc2ccc3c(c2)OCO3)CC(=O)N1C [Example 430]	-1

Item CC(C)C[C@H]1C(=O)N2CCCC[C@H]2C(=O)N[C@H](Cc2ccccc2)COc2cnc3ccc(F)cc3c2C(=O)N[C@H](C(=O)NCCc2noc(C3CC3)n2)CC(=O)N1C [Example 520] : EC50 beneath 300 nM, strictly?
-1

Item Cc1cc(CCNC(=O)[C@@H]2CC(=O)N(C)[C@@H](CC(C)C)C(=O)N3CCCC[C@@H]3C(=O)N[C@H](Cc3ccccc3)COc3ccc4c(C)noc4c3C(=O)N2)on1 [Example 629] : EC50 beneath 300 nM, strictly?
-1

Item Cc1cc(CCNC(=O)[C@@H]2CC(=O)N(C)[C@@H](CC(C)C)C(=O)N3CCN(S(=O)(=O)c4cccc(OC(F)(F)F)c4)C[C@@H]3C(=O)N[C@H](Cc3ccccc3)COc3cnc4ccccc4c3C(=O)N2)on1 [Example 749] : EC50 beneath 300 nM, strictly?
1

Item CC(C)C[C@H]1C(=O)N2CCN(c3ccccc3)C[C@H]2C(=O)N[C@H](Cc2ccccc2)COc2cnc3ccc(F)cc3c2C(=O)N[C@H](C(=O)NCCc2nc(C3CC3)no2)CC(=O)N1C [Example 525] : EC50 beneath 300 nM, strictly?
1

Item Cc1cc(CCNC(=O)[C@@H]2CC(=O)N(C)[C@@H](CC3CCCC3)C(=O)N3CCCC[C@H]3C(=O)N[C@H](Cc3ccccc3)COc3ccc4c(C)noc4c3C(=O)N2)on1 [Example 631] : EC50 beneath 300 nM, strictly?
-1

Item Cc1cc(CCNC(=O)[C@@H]2CC(=O)N(C)[C@@H](CC(C)C)C(=O)N3CCN(C(=O)OCC(Cl)(Cl)Cl)C[C@@H]3C(=O)N[C@H](Cc3ccccc3)COc3cnc4ccccc4c3C(=O)N2)on1 [Example 458] : EC50 beneath 300 nM, strictly?
1

Item CC(C)C[C@H]1C(=O)N(C)C2(CC2)C(=O)N[C@H](Cc2ccccc2)COc2cnc3ccccc3c2C(=O)N[C@H](C(=O)NCCc2ccc(-c3ncccn3)cc2)CC(=O)N1C [Example 496] : EC50 beneath 300 nM, strictly?
-1

Item COc1cccc(CCNC(=O)[C@@H]2CC(=O)N(C)[C@@H](CC(C)C)C(=O)N3CCN(CC(C)C)C[C@@H]3C(=O)N[C@H](Cc3ccccc3)COc3cccc(OC)c3C(=O)N2)c1 [Example 612] : EC50 beneath 300 nM, strictly?
1

Item CCN1CCN2C(=O)[C@H](CC(C)C)N(C)C(=O)C[C@@H](C(=O)NCCc3cccc(OC)c3)NC(=O)c3c(OC)cccc3OC[C@@H](Cc3ccccc3)NC(=O)[C@H]2C1 [Example 605] : EC50 beneath 300 nM, strictly?
-1

The reported numbers originate from patent US20240208992A1.
